# assayed system: RBM39 and the DCAF15 complex (RBM39-Flag / His-DCAF15-DDA1-DDB1) (Homo sapiens (Human), UniProt Q14498+Q66K64)
# procedure details: DCAF15 RBM39 complex formation TR-FRET assay
# condition description: RBM39(R150-D331) 3xFlag 50 nM, His-DCAF15-DDA1-DDB1 10 nM, 60 min room temperature
# Experimental: A TR-FRET assay was used to assess the effect of compounds disclosed herein on the interaction between RBM39 and the DCAF15 complex. Test compounds were dissolved to form a 10 mM DMSO stock solution. […] A 30 nL aliquot of the diluted compound was transferred to a 384 well plate, which was incubated at room temperature for 15 minutes. […] The plates were incubated at room temperature for 60 minutes, and then read. […]
Each entry belongs to exactly one class, chosen by where its EC50 falls: bucket 1 = under 400 nM, bucket 2 = from 400 nM up to 1000 nM, bucket 3 = 1000 nM and over

1. CCc1ncc(S(=O)(=O)Nc2ccc(C)c3c(C#N)c[nH]c23)s1 | bucket 1
2. Cc1sc(S(=O)(=O)Nc2cccc3c(C#N)c[nH]c23)nc1Br | bucket 1
3. Cc1ccc(NS(=O)(=O)c2cc(C(C)C)no2)c2[nH]cc(C#N)c12 | bucket 1
4. CC(C)c1cc(S(=O)(=O)Nc2cccc3c(C#N)c[nH]c23)on1 | bucket 2

Prompt line: Please classify: N#Cc1c[nH]c2c(NS(=O)(=O)c3nc(Br)cs3)cccc12
Response line: bucket 3

Prompt line: Quick one: Cc1ccc(NS(=O)(=O)c2ncc(C(=O)N3CCCCC3)s2)c2[nH]cc(C#N)c12
Response line: bucket 3

Prompt line: Also Cc1ccc(NS(=O)(=O)c2ncc(P(C)(C)=O)s2)c2[nH]cc(C#N)c12 ?
Response line: bucket 3

Prompt line: // query: Cc1ccc(NS(=O)(=O)c2cc(C3CC3)no2)c2[nH]cc(C#N)c12
Response line: bucket 1

Prompt line: Item: Cc1ccc(NS(=O)(=O)c2ncc(C(=O)N3CCC(O)C3)s2)c2[nH]cc(C#N)c12 (stereo not drawn)
Response line: bucket 3

Prompt line: Cool, now CCc1nc(S(=O)(=O)Nc2cccc3c(Cl)c[nH]c23)c[nH]1
Response line: bucket 2

Prompt line: How about this molecule: Cc1ccc(NS(=O)(=O)c2cncs2)c2[nH]cc(C#N)c12
Response line: bucket 1

Prompt line: Same read-out for N#Cc1c[nH]c2c(NS(=O)(=O)c3cnsc3)cccc12 ?
Response line: bucket 2

Prompt line: Do the same for CCc1nc(S(=O)(=O)Nc2cc(F)cc3c(C#N)c[nH]c23)c[nH]1 please
Response line: bucket 3

Prompt line: Please do the same for Cc1cnc(S(=O)(=O)Nc2ccc(C)c3c(C#N)c[nH]c23)s1 as well.
Response line: bucket 2

Prompt line: Another molecule to look at: Cc1ccc(NS(=O)(=O)c2cscn2)c2[nH]cc(C#N)c12
Response line: bucket 3

Prompt line: What do you have for Cc1ccc(NS(=O)(=O)c2nc(C(N)=O)cs2)c2[nH]cc(C#N)c12 ?
Response line: bucket 2

###

# assayed system: RBM39 and the DCAF15 complex (RBM39-Flag / His-DCAF15-DDA1-DDB1) (Homo sapiens (Human), UniProt Q14498+Q66K64)
# procedure details: DCAF15 RBM39 complex formation TR-FRET assay
# condition description: RBM39(R150-D331) 3xFlag 50 nM, His-DCAF15-DDA1-DDB1 10 nM, 60 min room temperature
Entries and their EC50 values follow.
Answer by giving the amount and then stating its unit.

Consider the following illustrative entries.
1) CC(C)(O)c1ncc(S(=O)(=O)Nc2cccc3c(C#N)c[nH]c23)s1 | 241 nM
2) CCc1nc(S(=O)(=O)Nc2ccc(C)c3c(C#N)c[nH]c23)cn1CC(=O)NC1CC1 | 6070 nM
3) N#Cc1c[nH]c2c(NS(=O)(=O)c3cncs3)ccc(F)c12 | 964 nM

# ---- query molecule ----
Prompt line: Need EC50, item COc1ncc(S(=O)(=O)Nc2ccc(C)c3c(C#N)c[nH]c23)s1
Response line: 175 nM

###

# assayed system: RBM39 and the DCAF15 complex (RBM39-Flag / His-DCAF15-DDA1-DDB1) (Homo sapiens (Human), UniProt Q14498+Q66K64)
# procedure details: DCAF15 RBM39 complex formation TR-FRET assay
# condition description: RBM39(R150-D331) 3xFlag 50 nM, His-DCAF15-DDA1-DDB1 10 nM, 60 min room temperature
outcome measure: pEC50
Worth noting: pEC50 values are minus log10 of concentrations stated in mol/L.

Worked examples, 10 compounds total:
1. N#Cc1c[nH]c2c(NS(=O)(=O)c3cnc(N4CCOCC4)s3)cccc12 | 6.20
2. Cc1ccc(NS(=O)(=O)c2nc(C(F)(F)F)cs2)c2[nH]cc(C#N)c12 | 6.42
3. Cc1ccc(NS(=O)(=O)c2nccs2)c2[nH]cc(C#N)c12 | 5.99
4. Cc1ccc(NS(=O)(=O)c2cnc(C(F)F)s2)c2[nH]cc(C#N)c12 | 7.00
5. N#Cc1c[nH]c2c(NS(=O)(=O)c3cnsn3)cccc12 | 5.41
6. N#Cc1c[nH]c2c(NS(=O)(=O)c3cnc(C(F)F)s3)cccc12 | 6.44
7. N#Cc1c[nH]c2c(NS(=O)(=O)c3nccs3)cccc12 | 5.55
8. Cc1ccc(NS(=O)(=O)c2nc(C(=O)NCCO)cs2)c2[nH]cc(C#N)c12 | 5.84
9. CCc1nc(S(=O)(=O)Nc2cccc3c(C#N)c[nH]c23)c[nH]1 | 5.38
10. Cc1nc(Br)sc1S(=O)(=O)Nc1ccc(C)c2c(C#N)c[nH]c12 | 6.29

Prompt line: Look up pEC50 for this compound: CCc1nc(S(=O)(=O)Nc2ccc(C)c3c(C#N)c[nH]c23)cn1CC(=O)O
Response line: 5.18

Prompt line: Then this compound: Cc1ccc(NS(=O)(=O)c2ncc(-c3cc[nH]n3)s2)c2[nH]cc(C#N)c12
Response line: 6.38

Prompt line: Another compound to look at: Cc1ccc(NS(=O)(=O)c2ncc(CCO)s2)c2[nH]cc(C#N)c12
Response line: 6.04

Prompt line: Same thing, different compound: Cc1ccc(NS(=O)(=O)c2nc(Br)cs2)c2[nH]cc(C#N)c12
Response line: 6.53

Prompt line: Further, for Cc1ccc(NS(=O)(=O)c2c[nH]c(C(C)C)n2)c2[nH]cc(C#N)c12 ?
Response line: 6.28

Prompt line: Try this compound too: N#Cc1c[nH]c2c(NS(=O)(=O)c3onc(C4CC4)c3Cl)cccc12
Response line: 6.76

Prompt line: Another compound: N#Cc1c[nH]c2c(NS(=O)(=O)c3cnc(C4CC4)o3)cccc12
Response line: 6.49

###

# assayed system: RBM39 and the DCAF15 complex (RBM39-Flag / His-DCAF15-DDA1-DDB1) (Homo sapiens (Human), UniProt Q14498+Q66K64)
# procedure details: DCAF15 RBM39 complex formation TR-FRET assay
# condition description: RBM39(R150-D331) 3xFlag 50 nM, His-DCAF15-DDA1-DDB1 10 nM, 60 min room temperature
outcome measure: EC50 (nM)
Just the number please, in nM, no unit attached.

Observe how each entry below is paired with its result.
1. Cc1nc(Br)sc1S(=O)(=O)Nc1cccc2c(C#N)c[nH]c12 | 2070
2. Cc1ccc(NS(=O)(=O)c2ncc(C(=O)N(C)C)s2)c2[nH]cc(C#N)c12 | 959

Prompt line: Dear colleague, I am looking for the recorded EC50 of the following compound: COCCNC(=O)c1cnc(S(=O)(=O)Nc2ccc(C)c3c(C#N)c[nH]c23)s1
Response line: 1960

###

# assayed system: RBM39 and the DCAF15 complex (RBM39-Flag / His-DCAF15-DDA1-DDB1) (Homo sapiens (Human), UniProt Q14498+Q66K64)
# procedure details: DCAF15 RBM39 complex formation TR-FRET assay
# condition description: RBM39(R150-D331) 3xFlag 50 nM, His-DCAF15-DDA1-DDB1 10 nM, 60 min room temperature
outcome measure: pEC50
In plain terms, pEC50 is the concentration in mol/L turned into minus its base-10 logarithm.

Worked cases, answers included:
1) CCc1ncc(S(=O)(=O)Nc2ccc(C)c3c(C#N)c[nH]c23)o1 [Compound 118] | 6.77
2) Cc1ccc(NS(=O)(=O)c2nc(C(=O)N3CCCC3)cs2)c2[nH]cc(C#N)c12 [Compound 60] | 5.87
3) Cc1ccc(NS(=O)(=O)c2cncs2)c2[nH]cc(C(F)(F)F)c12 [Compound 198] | 7.33
4) Cc1nc(S(=O)(=O)Nc2ccc(C)c3c(C#N)c[nH]c23)c(C)s1 [Compound 82] | 5.84
5) CNC(=O)c1cnc(S(=O)(=O)Nc2ccc(C)c3c(C#N)c[nH]c23)s1 [Compound 126] | 6.02

Prompt line: Please report the recorded pEC50 for Cc1ccc(NS(=O)(=O)c2ncc(-c3ccnnc3)s2)c2[nH]cc(C#N)c12 [Compound 68] .
Response line: 6.15

Prompt line: Entry to check: O=S(=O)(Nc1ccc(F)c2c(Cl)c[nH]c12)c1cncs1 [Compound 187]
Response line: 6.64

Prompt line: // same read-out, input: Cc1ccc(NS(=O)(=O)c2ncc(C(N)=O)s2)c2[nH]cc(C#N)c12 [Compound 141]
Response line: 6.04

Prompt line: Note, next up: Cc1ccc(NS(=O)(=O)c2ncc(-c3ccccn3)s2)c2[nH]cc(C#N)c12 [Compound 37]
Response line: 6.37

Prompt line: Another compound to look at: Cc1ccc(NS(=O)(=O)c2ncc(C(=O)NCCO)s2)c2[nH]cc(C#N)c12 [Compound 129]
Response line: 5.74
